Exercise: state measured MIC90 for each of the compounds provided.
# Tested on: Bacteroides fragilis
# assayName: Antibacterial activity against Bacteroides fragilis
# Type: functional
Record the value in µg/mL, omitting the unit from your answer.

Give Bacteroides fragilis MIC90 for Cc1c(N2CC[C@@H]([C@H](C)N)C2)c(F)cc2c(=O)[nH]c(=O)n(C3CC3)c12
16

And for Cc1c(N2CC[C@@H]([C@H](C)N)C2)c(F)cc2c(=O)n(N)c(=O)n(C3CC3)c12 ?
4

And for C[C@H]1COc2c(N3CCN(C)CC3)c(F)cc3c(=O)c(C(=O)O)cn1c23.C[C@H]1COc2c(N3CCN(C)CC3)c(F)cc3c(=O)c(C(=O)O)cn1c23.O ?
32

And for C[C@H]1NCc2cc(-c3ccc4c(=O)c(C(=O)O)cn(C5CC5)c4c3OC(F)F)ccc21 ?
2

And for COc1c(N2CCNC(C)C2)c(F)cc2c(=O)c(C(=O)O)cn(C3CC3)c12 (stereo not given) ?
8

* * *

# Tested on: Proteus vulgaris
# assayName: Antibacterial activity against Proteus vulgaris
# Type: functional
Exercise: state measured log10 of MIC for each of the compounds provided.
The base-10 logarithm of MIC, taken with MIC in µg/mL, is what appears here.

I'd like to know its log10 of MIC. The compound in question is COc1c(N2CCNC(C)C2)c(F)cc2c(=O)c(C(=O)O)cn(C3CC3)c12 (stereo not given)
-1.22

And for Cc1c(N2CC[C@@H]([C@H](C)N)C2)c(F)cc2c(=O)n(N)c(=O)n(C3CC3)c12 ?
0.00

And for C[C@H]1NCc2cc(-c3ccc4c(=O)c(C(=O)O)cn(C5CC5)c4c3OC(F)F)ccc21 ?
-0.60

And for C[C@H]1COc2c(N3CCN(C)CC3)c(F)cc3c(=O)c(C(=O)O)cn1c23.C[C@H]1COc2c(N3CCN(C)CC3)c(F)cc3c(=O)c(C(=O)O)cn1c23.O ?
-1.52

And for Cc1c(N2CC[C@@H]([C@H](C)N)C2)c(F)cc2c(=O)[nH]c(=O)n(C3CC3)c12 ?
0.30

* * *

# System: Enterococcus faecalis
# assayName: Antibacterial activity against VanA-resistant Enterococcus faecalis
# Format: functional
measuredParameter: MIC (µg/mL)
Record the value in µg/mL, omitting the unit from your answer.

Give Enterococcus faecalis MIC for COc1c(N2CCNC(C)C2)c(F)cc2c(=O)c(C(=O)O)cn(C3CC3)c12 (stereo not given)
8

And for Cc1c(N2CC[C@@H]([C@H](C)N)C2)c(F)cc2c(=O)[nH]c(=O)n(C3CC3)c12 ?
0.25

And for Cc1c(N2CC[C@@H]([C@H](C)N)C2)c(F)cc2c(=O)n(N)c(=O)n(C3CC3)c12 ?
0.125

And for C[C@H]1NCc2cc(-c3ccc4c(=O)c(C(=O)O)cn(C5CC5)c4c3OC(F)F)ccc21 ?
2

And for C[C@H]1COc2c(N3CCN(C)CC3)c(F)cc3c(=O)c(C(=O)O)cn1c23.C[C@H]1COc2c(N3CCN(C)CC3)c(F)cc3c(=O)c(C(=O)O)cn1c23.O ?
16

* * *

Exercise: state measured MIC90 for each of the compounds provided.
# System: Prevotella sp.
# assayName: Antibacterial activity against Prevotella sp.
# Assay type: functional
Remember to follow the number with its unit.

I'd like to know its MIC90. The compound in question is C[C@H]1NCc2cc(-c3ccc4c(=O)c(C(=O)O)cn(C5CC5)c4c3OC(F)F)ccc21 [GARENOXACIN]
1 µg/mL

And for COc1c(N2CCNC(C)C2)c(F)cc2c(=O)c(C(=O)O)cn(C3CC3)c12 (stereo not given) [GATIFLOXACIN] ?
0.5 µg/mL

And for C[C@H]1COc2c(N3CCN(C)CC3)c(F)cc3c(=O)c(C(=O)O)cn1c23.C[C@H]1COc2c(N3CCN(C)CC3)c(F)cc3c(=O)c(C(=O)O)cn1c23.O [LEVOFLOXACIN] ?
2 µg/mL

And for Cc1c(N2CC[C@@H]([C@H](C)N)C2)c(F)cc2c(=O)[nH]c(=O)n(C3CC3)c12 ?
2 µg/mL

And for Cc1c(N2CC[C@@H]([C@H](C)N)C2)c(F)cc2c(=O)n(N)c(=O)n(C3CC3)c12 ?
1 µg/mL

* * *

# Test system: Morganella morganii
# assayName: Antibacterial activity against Morganella morganii
# Assay type: functional
measuredParameter: MIC50 (mg/L)
Record the value in mg/L, omitting the unit from your answer.

Give Morganella morganii MIC50 for Cc1c(N2CC[C@@H]([C@H](C)N)C2)c(F)cc2c(=O)n(N)c(=O)n(C3CC3)c12
2

And for COc1c(N2CCNC(C)C2)c(F)cc2c(=O)c(C(=O)O)cn(C3CC3)c12 (stereo not given) ?
0.25

And for Cc1c(N2CC[C@@H]([C@H](C)N)C2)c(F)cc2c(=O)[nH]c(=O)n(C3CC3)c12 ?
2

And for C[C@H]1COc2c(N3CCN(C)CC3)c(F)cc3c(=O)c(C(=O)O)cn1c23.C[C@H]1COc2c(N3CCN(C)CC3)c(F)cc3c(=O)c(C(=O)O)cn1c23.O ?
0.125

And for C[C@H]1NCc2cc(-c3ccc4c(=O)c(C(=O)O)cn(C5CC5)c4c3OC(F)F)ccc21 ?
2

* * *

Exercise: state measured MIC50 for each of the compounds provided.
# System: Streptococcus salivarius
# assayName: Antibacterial activity against Streptococcus salivarius
# Assay type: functional
Record the value in µg/mL, omitting the unit from your answer.

I'd like to know its MIC50. The compound in question is COc1c(N2CCNC(C)C2)c(F)cc2c(=O)c(C(=O)O)cn(C3CC3)c12 (stereo not given) [GATIFLOXACIN]
0.5

And for Cc1c(N2CC[C@@H]([C@H](C)N)C2)c(F)cc2c(=O)[nH]c(=O)n(C3CC3)c12 ?
0.03

And for C[C@H]1COc2c(N3CCN(C)CC3)c(F)cc3c(=O)c(C(=O)O)cn1c23.C[C@H]1COc2c(N3CCN(C)CC3)c(F)cc3c(=O)c(C(=O)O)cn1c23.O [LEVOFLOXACIN] ?
1

And for C[C@H]1NCc2cc(-c3ccc4c(=O)c(C(=O)O)cn(C5CC5)c4c3OC(F)F)ccc21 [GARENOXACIN] ?
0.125

And for Cc1c(N2CC[C@@H]([C@H](C)N)C2)c(F)cc2c(=O)n(N)c(=O)n(C3CC3)c12 ?
0.03

* * *

Exercise: state measured MIC90 for each of the molecules provided.
# Test system: Staphylococcus aureus
# assayName: Antibacterial activity against oxacillin-resistant Staphylococcus aureus
# Type: functional
Record the value in µg/mL, omitting the unit from your answer.

I'd like to know its MIC90. The molecule in question is Cc1c(N2CC[C@@H]([C@H](C)N)C2)c(F)cc2c(=O)[nH]c(=O)n(C3CC3)c12
0.5

And for C[C@H]1NCc2cc(-c3ccc4c(=O)c(C(=O)O)cn(C5CC5)c4c3OC(F)F)ccc21 ?
2

And for Cc1c(N2CC[C@@H]([C@H](C)N)C2)c(F)cc2c(=O)n(N)c(=O)n(C3CC3)c12 ?
0.25

And for C[C@H]1COc2c(N3CCN(C)CC3)c(F)cc3c(=O)c(C(=O)O)cn1c23.C[C@H]1COc2c(N3CCN(C)CC3)c(F)cc3c(=O)c(C(=O)O)cn1c23.O ?
8

* * *

Exercise: state measured MIC50 for each of the molecules provided.
# System: Prevotella bivia
# assayName: Antibacterial activity against Prevotella bivia
# Type: functional
Record the value in µg/mL, omitting the unit from your answer.

I'd like to know its MIC50. The molecule in question is COc1c(N2CCNC(C)C2)c(F)cc2c(=O)c(C(=O)O)cn(C3CC3)c12 (centres undefined)
0.25

And for Cc1c(N2CC[C@@H]([C@H](C)N)C2)c(F)cc2c(=O)[nH]c(=O)n(C3CC3)c12 ?
0.5

And for C[C@H]1COc2c(N3CCN(C)CC3)c(F)cc3c(=O)c(C(=O)O)cn1c23.C[C@H]1COc2c(N3CCN(C)CC3)c(F)cc3c(=O)c(C(=O)O)cn1c23.O ?
1

And for C[C@H]1NCc2cc(-c3ccc4c(=O)c(C(=O)O)cn(C5CC5)c4c3OC(F)F)ccc21 ?
0.25
